shrunken log2 fold change values for the sequences below.
# Tested on: Escherichia coli TOP10;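 further: peptides expressed intracellularly from a pBAD plasmid library in pooled LB shake-flask culture, induced with 0.3% L-arabinose, DNA abundance read by NGS, three biological replicates, DESeq2 with apeglm shrinkage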
# experimental.details: shrunken log2 fold change of peptide-encoding DNA abundance (4.5 h post-induction vs induction); higher = less antimicrobial activity (less host growth inhibition)
# assay.setup: time post-induction: 4.5 h; library: site-saturation at positions 5, 18, 19, 20
Answer with a number only.

Some sequences with known shrunken log2 fold change results, for comparison:
{"sequence.data": "RRIRARPPRLPRPRPRPNIRPRP", "shrunken log2 fold change": -0.289}
{"sequence.data": "RRIRIRPPRLPRPRPRPPRMPRP", "shrunken log2 fold change": 0.21}
{"sequence.data": "RRIRERPPRLPRPRPRPPLGPRP", "shrunken log2 fold change": 0.0751}
{"sequence.data": "RRIRHRPPRLPRPRPRPRQIPRP", "shrunken log2 fold change": -0.0442}
{"sequence.data": "RRIRTRPPRLPRPRPRPTTPPRP", "shrunken log2 fold change": 0.245}

Given RRIRVRPPRLPRPRPRPESYPRP , respond with its shrunken log2 fold change.
0.45

Please look at this sequence and report its shrunken log2 fold change: RRIRSRPPRLPRPRPRPCSMPRP
-0.441

Quickly give me recorded shrunken log2 fold change for RRIRQRPPRLPRPRPRPFVSPRP
-0.216

Give shrunken log2 fold change for the following sequence: RRIRVRPPRLPRPRPRPAGHPRP
-0.1

Specify measured shrunken log2 fold change for RRIRCRPPRLPRPRPRPAPLPRP .
0.645

Supply shrunken log2 fold change value. Item: RRIRNRPPRLPRPRPRPINDPRP
0.0259

Could you please provide reported shrunken log2 fold change for RRIRDRPPRLPRPRPRPKYIPRP ? Thanks!
-0.516

Answer with the recorded shrunken log2 fold change of RRIRLRPPRLPRPRPRPYCPPRP only.
-0.24

Using known records, supply shrunken log2 fold change for RRIRDRPPRLPRPRPRPAEDPRP
-0.017

Identify shrunken log2 fold change associated with the sequence RRIRLRPPRLPRPRPRPAVAPRP
0.552
